- Subject of test: MRIP^724-878 (Homo sapiens)
- Construct: MRIP^724-878 (residues 724–878; CC2-CC4); made in house; host or cells: Escherichia coli BL21 (DE3)
- Sequence (Q6WCQ1 725-879): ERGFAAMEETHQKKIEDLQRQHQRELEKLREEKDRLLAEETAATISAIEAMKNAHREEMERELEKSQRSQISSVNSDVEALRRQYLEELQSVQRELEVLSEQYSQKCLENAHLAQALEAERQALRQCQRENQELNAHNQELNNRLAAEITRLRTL
- Protocol summary: AUC interaction of MYPT1 peptides (CC, LR and LR mutants) with MRIP^724-878
- Format: binding
- Condition details: s*lg(s*) graphs, MRIP^724-878 with mutant LR peptide, 50 μM each, compared with wild-type LR, pH 7.4, 20°C
Measure: binding affinity toward MRIP^724-878, LR mutants

Substance: LR^997-1030: mutant LR peptide shorter than LR in length (MEEELKMLPDLKADNQRLKDENGALIRVISKLSK)
Result: decreased
--
Substance: LR^1007-1028: mutant LR peptide shorter than LR in length (LKADNQRLKDENGALIRVISKL)
Result: decreased
--
Substance: LR^1001-1030: mutant LR peptide shorter than LR in length (LKMLPDLKADNQRLKDENGALIRVISKLSK)
Result: decreased
